Ref: ChEMBL document CHEMBL5291721

target: 5-hydroxytryptamine receptor 2B (Homo sapiens, UniProt P41595); format: functional, cell-based; further: assay procedure not described here
Sequence (P41595 whole entry): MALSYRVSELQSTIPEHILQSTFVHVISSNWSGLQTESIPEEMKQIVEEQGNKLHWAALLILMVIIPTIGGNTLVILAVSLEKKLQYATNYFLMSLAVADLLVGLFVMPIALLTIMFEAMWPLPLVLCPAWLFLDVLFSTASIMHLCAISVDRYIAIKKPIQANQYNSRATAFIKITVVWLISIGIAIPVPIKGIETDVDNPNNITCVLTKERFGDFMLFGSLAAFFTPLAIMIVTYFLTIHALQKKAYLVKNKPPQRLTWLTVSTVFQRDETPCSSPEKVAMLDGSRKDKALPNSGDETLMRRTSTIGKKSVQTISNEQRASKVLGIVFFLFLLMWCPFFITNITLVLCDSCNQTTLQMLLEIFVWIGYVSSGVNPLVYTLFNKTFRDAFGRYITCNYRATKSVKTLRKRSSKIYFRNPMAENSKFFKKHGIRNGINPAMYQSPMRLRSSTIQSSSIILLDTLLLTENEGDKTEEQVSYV
Property Measured: AC50

query: Item `Oc1ccc2c(c1)[C@@]13CCCC[C@@]1(O)[C@@H](C2)N(CC1CCC1)CC3` has what recorded AC50?
result: > 30 µM

query: Return reported AC50; argument: CN(CC1(C)CCCO1)S(=O)(=O)c1ccc(Cl)c(S(N)(=O)=O)c1 (stereo not drawn) [MEFRUSIDE]
result: > 30 µM

query: Fill in: AC50 of CC(C)NCC(O)c1ccc(O)c(O)c1 (stereo not drawn) is ___
result: > 10 µM

query: Consider the compound CCCC(CCC)C(N)=O [VALPROMIDE] and give its measured AC50.
result: > 10 µM

query: Please give the measured AC50 for this compound: `O=C1CN=C(c2ccccc2)c2cc([N+](=O)[O-])ccc2N1`
result: > 10 µM

query: Form field: reported AC50 of `CCN(CC)CCN1C(=O)CN=C(c2ccccc2F)c2cc(Cl)ccc21`
result: > 10 µM

query: Which AC50 value belongs to COc1ccccc1OCCNCC(O)COc1cccc2[nH]c3ccccc3c12 (stereo not drawn) ?
result: > 30 µM

query: Endpoint output: AC50 of `C=C[C@@]1(C)CC(=O)[C@]2(O)[C@@]3(C)[C@@H](O)CCC(C)(C)[C@@H]3[C@H](O)[C@H](OC(C)=O)[C@@]2(C)O1` . Value?
result: > 30 µM
